- assay.remarks: RPMI8226 myeloma cell viability, profiling panel, resazurin fluorescence, basal, 24 h, PK04 Diversity Set (AID 1180);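 also: RPMI8826 multiple myeloma cell line at 5000 cells per well; test concentration not given here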
- particulars: higher = more signal
In this section we review reported z-score values for a set of compounds.
assay.readout: z-score

INSERT INTO measurements (compound, observed_measurement) VALUES
  ('COC(=O)[C@@]1(Cc2ccc(F)cc2)[C@H]2c3cc(C(=O)N(C)C)n(Cc4nc5ccccc5[nH]4)c3C[C@H]2CN1C(=O)c1ccccc1', -0.187),
  ('C=CCOC(=O)[C@H]1[C@@H]2C(=O)O[C@@H](c3ccccc3)[C@@H](c3ccccc3)N2[C@@H](c2ccc(OCCOC(=O)[C@H]3C[C@H]4C(=O)N5CCC[C@H]5C(=O)N4[C@H]3c3ccc(O)cc3)cc2)[C@]12C(=O)Nc1ccccc12', 0.435),
  ('COc1ccc([Si](C)(C)[C@H]2[C@H](CCn3cc([C@H](O)c4ccccc4)nn3)O[C@@]3(C(=O)N(Cc4cccc(N5CCOC5=O)c4)c4ccccc43)[C@@H]2C)cc1', -0.754),
  ('CCOC(=O)[C@H]1CC=C2CC1C(=O)N1CCC[C@@H]1[C@@H]2O[Si](C)(C)C(C)(C)C (stereo partly specified)', 1.04),
  ('O=C1NC(=O)C2C1C=CC(C(O)Cc1ccccc1)N2Nc1ccc(Cl)cc1Cl (stereo unspecified)', -1.04),
  ('C[C@@]1([C@@H](NC(=O)c2ccccc2)c2ccc(-c3ccccc3)cc2)C[C@H]1C1CCCCC1', -0.675);

* * *

- Test system: Inhibin beta A chain (activin A)
- assay.remarks: INHBA (activin A) binders on microarrays, primary screen, biochemical, small-molecule microarray, 635 nm fluorescence scan (AID 1107);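 also: mouse activin A protein probed at 4.33 µg/mL on printed slides; score merges bound-protein fluorescence near 667 nm with spot signal-to-noise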
- particulars: small-molecule microarray binding, higher = more signal
In this section we review reported composite z-score values for a set of compounds.
assay.readout: composite z-score

INSERT INTO results (compound, observed_measurement) VALUES
  ('COC(=O)C(CC#Cc1ccc2c(c1)[C@]1(C(=O)N2)[C@H](c2ccc(O)cc2)N2[C@H](c3ccccc3)[C@H](c3ccccc3)OC(=O)[C@H]2[C@@H]1C(=O)Nc1nc2ccccc2s1)C(=O)OC', 0.598),
  ('Cc1ccc(C(C)CC(O)C2C=CC3C(=O)N(C)C(=O)C3N2NC(=O)OC(C)(C)C)o1 (centres undefined)', -0.0924),
  ('O=C1OCCC/C=C\[C@H]2OC34C=CCN(c5ccc6ccccc6c5)C(=O)[C@H]3N(CCCCCCO)C(=O)[C@@H]4C12 (some centres undefined)', 0.998),
  ('COc1cc2c(cc1O)C(C1CC1)N(Cc1cc3c(cc1Br)OCO3)CC2 (centres undefined)', -0.13),
  ('COCCOC(=O)N1C(=O)[C@@]2(c3cc(C#CCNC(N)=O)ccc31)[C@H](C(=O)NC[C@H](O)c1ccccc1)[C@H]1C(=O)O[C@H](c3ccccc3)[C@H](c3ccccc3)N1[C@@H]2c1ccccc1OCCO', 1.05),
  ('COc1cc2c(cc1OC)CN(C(=O)[C@@H]1[C@H]3C(=O)O[C@H](c4ccccc4)[C@H](c4ccccc4)N3[C@H](c3ccc(O)cc3)[C@@]13C(=O)Nc1ccc(C#CC4(O)CCCCCC4)cc13)CC2', -0.439),
  ('CC(=O)n1cc(C(O)C2C=CC3C(=O)N(C)C(=O)C3N2Nc2ccccc2)c2ccccc21 (centres undefined)', 1.79),
  ('CC(C)(C)OC(=O)CC[C@@]1(C(N)=O)N=C(c2ccc(OCCCO)cc2)O[C@@H]1c1ccccc1', 0.557),
  ('COCCCN1C(=O)[C@@]2(c3ccc([N+](=O)[O-])cc3)CC(=O)N(C3CCCCC3)[C@@H]2c2ccc(CO)cc21', 0.717),
  ('CN1C(=O)C2C=CC(C(O)Cc3ccccc3)N(Nc3ccccc3)C2C1=O (centres undefined)', 0.437),
  ('C#CCN(CC1=CCCCC1)[C@H](c1ccccc1Br)[C@@H](O)Cc1ccccc1', 0.685),
  ('CN(C)C(=O)[C@]1(Cc2ccccc2N=[N+]=[N-])N=C(c2ccc(OCCCO)cc2)O[C@@H]1c1ccccc1', 0.545),
  ('O=C1O[C@@H](c2ccccc2)[C@@H](c2ccccc2)N2[C@@H](c3ccc(OCCO)cc3)[C@]3(C(=O)Nc4ccccc43)[C@@H](C(=O)NC[C@H](O)c3ccccc3)[C@H]12', 0.632),
  ('CN(C)CCCNC(=O)[C@@]1(C)c2ccccc2C(=O)N(Cc2cc(F)cc(C(F)(F)F)c2)[C@H]1c1ccc(CO)cc1', 0.376);
